The entries below are paired with their reported IC50.
# Target of assay: NRAS G12C (Homo sapiens (Human), UniProt P01111+P62937, G12C)
# Sequence (P01111 whole entry G12C): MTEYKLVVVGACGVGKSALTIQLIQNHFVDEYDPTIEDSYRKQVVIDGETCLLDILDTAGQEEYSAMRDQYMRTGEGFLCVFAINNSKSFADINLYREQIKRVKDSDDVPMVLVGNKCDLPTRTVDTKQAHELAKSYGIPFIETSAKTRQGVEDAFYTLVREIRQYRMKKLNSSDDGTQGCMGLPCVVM
# Sequence (P62937 whole entry): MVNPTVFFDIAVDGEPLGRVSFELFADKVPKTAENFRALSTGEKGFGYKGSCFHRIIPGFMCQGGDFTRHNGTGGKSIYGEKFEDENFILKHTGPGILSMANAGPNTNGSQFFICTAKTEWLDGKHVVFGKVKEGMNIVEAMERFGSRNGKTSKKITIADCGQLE
# Assay details: Ras-Raf (BRAF RBD) disruption / FRET / MOA assay, NRAS G12C
# Type: biochemical
# Condition details: read-out: IC50* NRAS G12C FRET data

{"Compound": "C=CC(=O)N1CC[C@H](C(=O)N(C2CC2)[C@H](C(=O)N[C@H]2Cc3cccc(c3)-c3ccc4c(c3)c(c(-c3cccnc3[C@H](C)OC)n4CC)CC(C)(C)COC(=O)[C@@H]3CCCN(N3)C2=O)C(C)C)C1 (atropisomer, axis not shown) [Example A398]", "IC50": "1000 to 10000 nM"}
{"Compound": "CO[C@@H](C)c1ncccc1-c1c2c3cc(ccc3n1CC(F)(F)F)-c1cccc(c1)C[C@H](NC(=O)[C@H](C(C)C)N(C)C(=O)N1CCC3(CC1)CN(C(=O)/C=C/CN(C)C)C3)C(=O)N1CCC[C@H](N1)C(=O)OCC(C)(C)C2 (atropisomer, axis not shown) [Example A555]", "IC50": "100 to 1000 nM"}
{"Compound": "CCn1c(-c2cccnc2[C@H](C)OC)c2c3cc(ccc31)-c1cccc(c1)C[C@H](NC(=O)[C@@H](CO[C@H]1CCN(C(=O)C#CC(C)(C)N(C)C)C1)C(C)C)C(=O)N1CCC[C@H](N1)C(=O)OCC(C)(C)C2 (atropisomer, axis not shown) [Example A585]", "IC50": "10 to 100 nM"}
{"Compound": "C=CS(=O)(=O)N1CCC2(CCN([C@H](C(=O)N[C@H]3Cc4cc(O)cc(c4)-c4ccc5c(c4)c(c(-c4cccnc4[C@H](C)OC)n5CC)CC(C)(C)COC(=O)[C@@H]4CCCN(N4)C3=O)C(C)C)C2=O)CC1 (atropisomer, axis not shown) [Example A299]", "IC50": "< 10 nM"}

[ask] Please supply the value of reported IC50 for the item CCn1c(-c2cccnc2[C@H](C)OC)c2c3cc(ccc31)N1CCC[C@@H](C[C@H](NC(=O)[C@H](C(C)C)N(C)C(=O)C3(F)CCN(C(=O)C#CC(C)(C)N(C)C)CC3)C(=O)N3CCC[C@H](N3)C(=O)OCC(C)(C)C2)C1 (atropisomer, axis not shown) [Example A616]
[reply] < 10 nM

[ask] Return reported IC50. Input compound: C=CC(=O)N1CC[C@H](C(=O)N(C)[C@H](C(=O)N[C@H]2Cc3cccc(c3)-c3ccc4c(c3)c(c(-c3cccnc3[C@H](C)OC)n4CC#CC)CC(C)(C)COC(=O)[C@@H]3CCCN(N3)C2=O)C(C)C)C1 (atropisomer, axis not shown) [Example A531]
[reply] 100 to 1000 nM

[ask] Quick one: give measured IC50 for C=CC(=O)N1CC[C@H](C(=O)N(C)[C@H](C(=O)N[C@H]2C[C@H]3CN(CCO3)c3ccc4c(c3)c(c(-c3cccnc3[C@H](C)OC)n4CC)CC(C)(C)COC(=O)[C@@H]3CCCN(N3)C2=O)C(C)C)C1 (atropisomer, axis not shown) [Example A378]
[reply] 100 to 1000 nM
